organism: Rattus norvegicus; experiment: Open TG-GATES - Regimen: Daily Repeat; format: toxicity, organism-based, Sprague-Dawley; set-up: regimen Daily Repeat, gender Male, age 6 weeks; settings: in vivo, po, 0 mg/kg, […], tissue Plasma, route gavage, dose level Control, time 14 day
Listed here are compounds together with their documented LDH.
property-label: LDH (IU/L)

- Clc1ccccc1CN1CCc2sccc2C1: 155.2
- CO[C@H]1/C=C/O[C@@]2(C)Oc3c(C)c(O)c4c(O)c(c(/C=N/N5CCN(C)CC5)c(O)c4c3C2=O)NC(=O)/C(C)=C\C=C\[C@H](C)[C@H](O)[C@@H](C)[C@@H](O)[C@@H](C)[C@H](OC(C)=O)[C@@H]1C: 78.4
- CN(C)CCC=C1c2ccccc2CCc2ccccc21: 70.8
- O=C(O)c1cc(/N=N/c2ccc(S(=O)(=O)Nc3ccccn3)cc2)ccc1O: 292
- C[C@H](CS)C(=O)N1CCC[C@H]1C(=O)O: 76.8

---

species on record: Rattus norvegicus; assay: Open TG-GATES - Regimen: Daily Repeat; assay type: toxicity, organism-based, Sprague-Dawley; parameters: regimen Daily Repeat, gender Male, age 6 weeks; conditions: in vivo, po, 0 mg/kg, […], tissue Blood, route gavage, dose level Control, time 7 day
property-label: Ret (%)

- CCCC(CCC)C(=O)O [VALPROIC ACID]: 5.8
- O=C(O)c1cn(C2CC2)c2cc(N3CCNCC3)c(F)cc2c1=O [CIPROFLOXACIN]: 6.9
- CC(=O)Oc1ccccc1C(=O)O [ASPIRIN]: 5.3
- O=C(O)c1cc(/N=N/c2ccc(S(=O)(=O)Nc3ccccn3)cc2)ccc1O [SULFASALAZINE]: 5.5
- CN(C)CCC=C1c2ccccc2CCc2ccccc21 [AMITRIPTYLINE]: 5.7
- C[C@H](CS)C(=O)N1CCC[C@H]1C(=O)O [CAPTOPRIL]: 6.1

---

species: Rattus norvegicus; assay: Open TG-GATES - Regimen: Single; format: toxicity, organism-based, Sprague-Dawley; set-up: regimen Single, gender Male, age 6 weeks; details: in vivo, po, 100 mg/kg, 3 h, tissue Plasma, route gavage, dose level Low
property-label: AST (IU/L)

• O=C(O)c1cc(/N=N/c2ccc(S(=O)(=O)Nc3ccccn3)cc2)ccc1O [SULFASALAZINE] = 69.4
• O=C(O)c1cn(C2CC2)c2cc(N3CCNCC3)c(F)cc2c1=O [CIPROFLOXACIN] = 68.6
• CCc1cc(C(N)=S)ccn1 [ETHIONAMIDE] = 68.6
• C[C@H](CS)C(=O)N1CCC[C@H]1C(=O)O [CAPTOPRIL] = 67
• Clc1ccccc1CN1CCc2sccc2C1 [TICLOPIDINE] = 71

---

organism: Rattus norvegicus; test: Open TG-GATES - Regimen: Single; format: toxicity, organism-based, Sprague-Dawley; set-up: regimen Single, gender Male, age 6 weeks; settings: in vivo, po, 0 mg/kg, 24 h, tissue Kidney, route gavage, dose level Control
Catalogue of KIDNEY_TOTAL values
property-label: KIDNEY_TOTAL (g)

- C[C@H](CS)C(=O)N1CCC[C@H]1C(=O)O [CAPTOPRIL]: 2
- COc1ccc(Cc2nccc3cc(OC)c(OC)cc23)cc1OC [PAPAVERINE]: 2.1
- COc1ccc2c(c1)c(CC(=O)O)c(C)n2C(=O)c1ccc(Cl)cc1 [INDOMETHACIN]: 2
- O=C(O)c1cc(/N=N/c2ccc(S(=O)(=O)Nc3ccccn3)cc2)ccc1O [SULFASALAZINE]: 2
- CCc1cc(C(N)=S)ccn1 [ETHIONAMIDE]: 2.1

---

Catalogue of ALT values
species: Rattus norvegicus; test: Open TG-GATES - Regimen: Single; type: toxicity, organism-based, Sprague-Dawley; set-up: regimen Single, gender Male, age 6 weeks; settings: in vivo, po, 1000 mg/kg, 9 h, tissue Plasma, route gavage, dose level High
property-label: ALT

• CCc1cc(C(N)=S)ccn1 [ETHIONAMIDE] = 36.2 IU/L
• C[C@H](CS)C(=O)N1CCC[C@H]1C(=O)O = 36 IU/L
• O=C(O)c1cc(/N=N/c2ccc(S(=O)(=O)Nc3ccccn3)cc2)ccc1O = 31.4 IU/L
• Clc1ccccc1CN1CCc2sccc2C1 = 25.6 IU/L

---

organism: Rattus norvegicus; assay: Open TG-GATES - Regimen: Single; assay type: toxicity, organism-based, Sprague-Dawley; set-up: regimen Single, gender Male, age 6 weeks; details: in vivo, po, 1000 mg/kg, 9 h, tissue Kidney, route gavage, dose level High
property-label: KIDNEY_TOTAL

- O=C(O)c1cn(C2CC2)c2cc(N3CCNCC3)c(F)cc2c1=O [CIPROFLOXACIN]: 1.7 g
- Clc1ccccc1CN1CCc2sccc2C1 [TICLOPIDINE]: 1.9 g
- C[C@H](CS)C(=O)N1CCC[C@H]1C(=O)O [CAPTOPRIL]: 2 g
- CCc1cc(C(N)=S)ccn1 [ETHIONAMIDE]: 2 g
- O=C(O)c1cc(/N=N/c2ccc(S(=O)(=O)Nc3ccccn3)cc2)ccc1O [SULFASALAZINE]: 1.9 g

---

Each item that follows carries a reported Fbg.
species on record: Rattus norvegicus; experiment: Open TG-GATES - Regimen: Daily Repeat; assay type: toxicity, organism-based, Sprague-Dawley; parameters: regimen Daily Repeat, gender Male, age 6 weeks; conditions: in vivo, po, 0 mg/kg, 72 h, tissue Blood, route gavage, dose level Control, time 3 day
property-label: Fbg (mg/dL)

- O=C(O)c1cc(/N=N/c2ccc(S(=O)(=O)Nc3ccccn3)cc2)ccc1O: 245.4
- NC(=O)N1c2ccccc2C=Cc2ccccc21 [CARBAMAZEPINE]: 213.8
- CC(=O)Oc1ccccc1C(=O)O: 216.6
- CO[C@H]1/C=C/O[C@@]2(C)Oc3c(C)c(O)c4c(O)c(c(/C=N/N5CCN(C)CC5)c(O)c4c3C2=O)NC(=O)/C(C)=C\C=C\[C@H](C)[C@H](O)[C@@H](C)[C@@H](O)[C@@H](C)[C@H](OC(C)=O)[C@@H]1C: 239
- O=C(O)c1cn(C2CC2)c2cc(N3CCNCC3)c(F)cc2c1=O: 228
- CCCC(CCC)C(=O)O: 222.8
- CCc1cc(C(N)=S)ccn1 [ETHIONAMIDE]: 262
- CN(C)CCC=C1c2ccccc2CCc2ccccc21: 287.4
- COc1ccc(Cc2nccc3cc(OC)c(OC)cc23)cc1OC: 326.8
- Clc1ccccc1CN1CCc2sccc2C1: 211
- NC(=O)N/N=C/c1ccc([N+](=O)[O-])o1: 279.4
- COc1ccc2c(c1)c(CC(=O)O)c(C)n2C(=O)c1ccc(Cl)cc1: 211.8
- CSc1ccc2c(c1)N(CCC1CCCCN1C)c1ccccc1S2 (centres undefined): 215.2
- Cn1c(=O)c2[nH]cnc2n(C)c1=O.O: 314.4

---

# gamma-GTP per record follows
species: Rattus norvegicus; experiment: Open TG-GATES - Regimen: Single; format: toxicity, organism-based, Sprague-Dawley; parameters: regimen Single, gender Male, age 6 weeks; details: in vivo, po, 300 mg/kg, 9 h, tissue Plasma, route gavage, dose level Middle
property-label: gamma-GTP

* O=C(O)c1cc(/N=N/c2ccc(S(=O)(=O)Nc3ccccn3)cc2)ccc1O | 1.2 IU/L
* CCc1cc(C(N)=S)ccn1 [ETHIONAMIDE] | 0.8 IU/L
* O=C(O)c1cn(C2CC2)c2cc(N3CCNCC3)c(F)cc2c1=O | 1.4 IU/L
* Clc1ccccc1CN1CCc2sccc2C1 | 1.2 IU/L
* C[C@H](CS)C(=O)N1CCC[C@H]1C(=O)O | 2 IU/L

---

species on record: Rattus norvegicus; assay: Open TG-GATES - Regimen: Daily Repeat; type: toxicity, organism-based, Sprague-Dawley; design: regimen Daily Repeat, gender Male, age 6 weeks; conditions: in vivo, po, 0 mg/kg, […], tissue Plasma, route gavage, dose level Control, time 7 day
Label condition met when ALT >= 40 IU/L; otherwise condition not met.

• Cn1c(=O)c2[nH]cnc2n(C)c1=O.O = condition met
• CCc1cc(C(N)=S)ccn1 [ETHIONAMIDE] = condition not met
• O=C(O)c1cn(C2CC2)c2cc(N3CCNCC3)c(F)cc2c1=O = condition not met
• NC(=O)N1c2ccccc2C=Cc2ccccc21 [CARBAMAZEPINE] = condition not met
• O=C(O)c1cc(/N=N/c2ccc(S(=O)(=O)Nc3ccccn3)cc2)ccc1O = condition not met
• CCCC(CCC)C(=O)O = condition not met
• NC(=O)N/N=C/c1ccc([N+](=O)[O-])o1 = condition met
• C[C@H](CS)C(=O)N1CCC[C@H]1C(=O)O = condition not met
• CC(=O)Oc1ccccc1C(=O)O = condition not met
• COc1ccc2c(c1)c(CC(=O)O)c(C)n2C(=O)c1ccc(Cl)cc1 = condition not met
• CSc1ccc2c(c1)N(CCC1CCCCN1C)c1ccccc1S2 (centres undefined) = condition not met
• COc1ccc(Cc2nccc3cc(OC)c(OC)cc23)cc1OC = condition met
• Clc1ccccc1CN1CCc2sccc2C1 = condition met
